EXPERIMENT_SUMMARY: in vitro
Format: in vitro ADME, mouse
CONDITION_LABEL: mouse; Table S22; 1 μM compound, 0.5 mg/mL pooled C57BL/6 microsomes; read-out: Mouse liver microsome t1/2
Where half-life equals or exceeds 20 min, the correct label is Condition met; where it does not, the label is Condition not met.

Worked cases, answers included:
* CC(=O)OC1C2OC2C(C)(O)C(=O)C(C)CC2OC2C2C3OC3(C)C(C)C3C(Cc4ccccc4)NC(=O)C132 (centres unmarked) | Condition met
* CC1CC=CC2C3OC3(C)C(C)C3C(Cc4cccc(Br)c4)NC(=O)C23C(O)C2OC2C(C)(O)C1=O (centres unmarked) | Condition met
* CC(=O)O[C@@H]1/C=C/[C@@](C)(O)C(=O)[C@@H](C)C/C=C/[C@H]2[C@H](O)C(C)=C(C)[C@H]3[C@H](Cc4ccccc4)NC(=O)[C@@]123 | Condition not met
* CC(=O)OC1C2OC2C(C)(O)C(=O)C(C)CC=CC2C3OC3(C)C(C)C3C(Cc4cccc(Cl)c4)NC(=O)C213 (centres unmarked) | Condition met
* CC1CC=CC2C3OC3(C)C(C)C3C(Cc4ccccc4Br)NC(=O)C23C(=O)C2OC2C(C)(O)C1=O (centres unmarked) | Condition not met

[ask] Tell me whether half-life is at least 20 min here: C[C@H]1C/C=C/[C@H]2[C@@H]3O[C@]3(C)[C@@H](C)[C@H]3[C@H](Cc4ccccc4Br)NC(=O)[C@]32C(=O)C[C@@H](O)[C@@](C)(O)C1=O [Compound 21, o-bromo-19-hydroxy-21-oxocytochalasin Q]
[reply] Condition not met

[ask] Textbook exercise: given the entry CC1=C(C)C2C(Cc3cccc(Cl)c3)NC(=O)C23C(O)C2OC2C(C)(O)C(=O)C(C)CC=CC3C1O (centres unmarked) , state whether its half-life is greater than or equal to 20 min.
[reply] Condition met

[ask] I'd appreciate it if you could say whether CC(=O)O[C@@H]1/C=C/[C@@](C)(O)C(=O)[C@@H](C)C/C=C/[C@H]2[C@@H]3O[C@]3(C)[C@@H](C)[C@H]3[C@H](Cc4cccc(Cl)c4)NC(=O)[C@@]312 has half-life at least equal to 20 min.
[reply] Condition not met

[ask] Threshold query (half-life >= 20 min) on C#CCCC1(CCC(=O)OC2C(=C)C(C)C3C(Cc4ccccc4)NC(=O)C34C2C=CCC(C)C(=O)C(C)(O)C2OC2C4OC(C)=O)N=N1 (centres unmarked)
[reply] Condition not met

[ask] Hi team, for CC(=O)OC1C2OC2C(C)(O)C(=O)C(C)CC=CC2C3OC3(C)C(C)C3C(Cc4ccccc4)NC(=O)C213 (centres unmarked) , is the recorded half-life at or above 20 min?
[reply] Condition not met

[ask] State whether the measured half-life reaches 20 min, counting equality as reaching it, for CC1CC=CC2C3OC3(C)C(C)C3C(Cc4ccccc4)NC(=O)C23C(O)C2OC2C(C)(O)C1=O (centres unmarked)
[reply] Condition met

====

System: A549 (human lung carcinoma cell line)
EXPERIMENT_SUMMARY: Cytotoxicity assay (MTT, 5 d) on A549
Type: cell-based
CONDITION_LABEL: Homo sapiens, A549, 120 h, Table S22; MTT, 5 d incubation
PROPERTY_MEASURED: IC50

* C[C@H]1C/C=C/[C@H]2[C@@H]3O[C@]3(C)[C@@H](C)[C@H]3[C@H](Cc4ccccc4Br)NC(=O)[C@]32C(=O)C[C@@H](O)[C@@](C)(O)C1=O [Compound 21, o-bromo-19-hydroxy-21-oxocytochalasin Q] | 0.79 µg/mL
* CC(=O)OC1C2OC2C(C)(O)C(=O)C(C)CC2OC2C2C3OC3(C)C(C)C3C(Cc4ccccc4)NC(=O)C132 (stereo not drawn) [Compound 8, 19,20-epoxycytochalasin R] | > 37 µg/mL
* CC(=O)OC1C2OC2C(C)(O)C(=O)C(C)CC=CC2C3OC3(C)C(C)C3C(Cc4ccccc4)N(C(C)=O)C(=O)C213 (stereo not drawn) [Compound 24, N-acetyl-19,20-epoxycytochalasin Q] | 0.72 µg/mL
* CC(=O)OC1C2OC2C(C)(O)C(=O)C(C)CC=CC2C3OC3(C)C(C)C3C(Cc4ccccc4)NC(=O)C213 (stereo not drawn) [Compound 6, 19,20-epoxycytochalasin Q] | 0.14 µg/mL
* CC(=O)O[C@@H]1/C=C/[C@@](C)(O)C(=O)[C@@H](C)C/C=C/[C@H]2[C@H](O)C(C)=C(C)[C@H]3[C@H](Cc4ccccc4)NC(=O)[C@@]123 [Compound 2, cytochalasin C] | 3.34 µg/mL
* CC(=O)OC1C2OC2C(C)(O)C(=O)C(C)CC=CC2C3OC3(C)C(C)C3C(Cc4cccc(Br)c4)NC(=O)C213 (stereo not drawn) [Compound 18, m-bromo-19,20-epoxycytochalasin Q] | 0.31 µg/mL

Respectfully, I request IC50 for each entry included below.
1. CC1CC=CC2C3OC3(C)C(C)C3C(Cc4cccc(Br)c4)NC(=O)C23C(O)C2OC2C(C)(O)C1=O (stereo not drawn) [Compound 19]
2. CC1CC=CC2C3OC3(C)C(C)C3C(Cc4ccccc4)NC(=O)C23C(O)C2OC2C(C)C1=O (stereo not drawn) [Compound 1]
3. CC1CC=CC2C3OC3(C)C(C)C3C(Cc4ccccc4Br)NC(=O)C23C(=O)C2OC2C(C)(O)C1=O (stereo not drawn) [Compound 20, o-bromo-19,20-epoxy-21-oxocytochalasin Q]
4. CC(=O)OC1C2OC2C(C)C(=O)C(C)CC=CC2C3OC3(C)C(C)C3C(Cc4cccc(Cl)c4)NC(=O)C213 (stereo not drawn) [Compound 16]
5. CC1=C(C)C2C(Cc3cccc(Br)c3)NC(=O)C23C(O)C2OC2C(C)(O)C(=O)C(C)CC=CC3C1O (stereo not drawn) [Compound 17]

[reply]
["> 37 µg/mL", "0.32 µg/mL", "0.62 µg/mL", "1.02 µg/mL", "0.19 µg/mL"]

For each entry beneath this line, provide reported IC50.
1. C#CCCC1(CCC(=O)OC2C(=C)C(C)C3C(Cc4ccccc4)NC(=O)C34C2C=CCC(C)C(=O)C(C)(O)C2OC2C4OC(C)=O)N=N1 (stereo not drawn) [Compound 26, 7-diazirin-19,20-epoxycytochalasin D]
2. CC1=C(C)C2C(Cc3cccc(Cl)c3)NC(=O)C23C(O)C2OC2C(C)(O)C(=O)C(C)CC=CC3C1O (stereo not drawn) [Compound 12]
3. CC1CC=CC2C3OC3(C)C(C)C3C(Cc4ccccc4)NC(=O)C23C(O)C2OC2C(C)(O)C1=O (stereo not drawn) [Compound 7, deacetyl-19,20-epoxycytochalasin Q]
4. CC(=O)O[C@@H]1/C=C/[C@@](C)(O)C(=O)[C@@H](C)C/C=C/[C@H]2[C@@H]3O[C@]3(C)[C@@H](C)[C@H]3[C@H](Cc4cccc(Cl)c4)NC(=O)[C@@]312 [Compound 13, m-chloro-cytochalasin Q]

[reply]
10.3 µg/mL
> 37 µg/mL
2.56 µg/mL
0.14 µg/mL
